This listing pairs molecules with measured IC50.
system: MelJuSo cells; experiment: Cell viability (CellTiter-Glo ATP content) in MelJuSo cells; format: cell-based; details: Homo sapiens, MEL-JUSO, 72 hours treatment, cell survival by CellTiter-Glo, 2% fetal bovine serum

Give IC50 for the following molecule: CCCCC1C(c2ccc(F)cc2)=NN(c2ccc(Cl)cc2C)C1(C)C(=O)NCCCOC (stereo not shown) > 2 µM

Supply reported IC50 belonging to this molecule: CN(C)CCNC(=O)CNC(=O)C1(C)C(c2cccs2)C(c2ccc(F)cc2)=NN1c1ccc(F)cc1F (stereo not shown) 1 to 2 µM

Give IC50 for the following molecule: CCCCC1C(c2ccc(F)cc2)=NN(c2ccccc2)C1(C)C(=O)NCc1cc(Cl)cc(Cl)c1 (stereo not shown) 1 to 2 µM

Output IC50 of CC1(C(=O)NCCNC(=O)CCCCC2SC[C@@H]3NC(=O)N[C@H]23)C(c2cccs2)C(c2ccc(F)cc2)=NN1c1ccc(F)cc1F (stereo partly shown) > 2 µM

----------
system: MelJuSo cells; assay: Cell viability (CellTiter-Glo ATP content) in MelJuSo cells; type: cell-based; details: Homo sapiens, MEL-JUSO, 72 hours treatment, cell survival by CellTiter-Glo, 2% fetal bovine serum
Each entry below carries its reported IC50.

Sample records with IC50:
COCCNC(=O)C1(C)C(c2ccc(C)s2)C(c2ccc(F)cc2)=NN1c1ccc(F)cc1F (stereo not shown)    0.25 to 0.5 µM
CN1CCOC(CNC(=O)C2(C)C(c3ccc(Cl)o3)C(c3ccc(F)cc3F)=NN2c2ccc(F)cc2F)C1 (stereo not shown)    < 0.25 µM
CCCCC1C(c2ccc(F)cc2)=NN(c2ccc(Cl)cc2F)C1(C)C(=O)NCCOC (stereo not shown)    < 0.25 µM

# context switch: different compound, same IC50
// Input: CC(C)(CO)CCCNC(=O)C1(C)C(c2ccsc2)C(c2ccc(F)cc2)=NN1c1ccc(F)cc1F (stereo not shown) . Output its IC50 only. < 0.25 µM

----------
test system: A549 cells; assay: Cell viability (CellTiter-Glo ATP content) in A549 cells; type: cell-based; conditions: Homo sapiens, A549, 72 h, 72 hours treatment, cell survival by CellTiter-Glo, 2% fetal bovine serum
Listed below: IC50 values for each entry.

# example entries with known answers
CCCCC1C(c2c(F)cc(F)cc2F)=NN(c2ccc(F)cc2F)C1(C)C(=O)NCCCC(C)(C)CO (stereo not shown)    > 2 µM
CCCCC1C(c2ccc(F)cc2)=NN(c2cccc(C)c2)C1(C)C(=O)NCCOC (stereo not shown)    0.25 to 0.5 µM
CCCCC1C(c2ccc(F)cc2)=NN(c2ccccc2)C1(C)C(=O)N[C@@H](C)c1ccccc1 (stereo partly shown)    > 2 µM

Continue with the next compound.
Please report IC50 for the following compound: CC1(C(=O)NCC(O)CCO)C(c2cccs2)C(c2ccc(F)cc2)=NN1c1ccc(F)cc1F (stereo not shown) > 2 µM

----------
Tested on: MelJuSo cells
Assay: Cell viability (CellTiter-Glo ATP content) in MelJuSo cells
Assay type: cell-based
Conditions: Homo sapiens, MEL-JUSO, 72 hours treatment, cell survival by CellTiter-Glo, 2% fetal bovine serum
Method: Logarithmically growing A549, LOX and MelJuSo cells (ATCC) were plated in antibiotic-free RPMI medium (Coming) supplemented with 2% fetal bovine serum (Gemini Bio-products) at a density of 5,000 cells per well in clear-bottom 96-well plates. […] Signal intensity was measured on a Glomax™ 96 Microplate Luminometer (Promega) and percent cell survival was calculated based on the reading of vehicle control cells set as 100%.
Known IC50 of a selection of compounds

Please review the entries below; each comes with its answer.
CCCCC1C(c2ccc(F)cc2)=NN(c2cc(F)ccc2F)C1(C)C(=O)NCCCCC(C)(C)O (centres unmarked)    0.5 to 1 µM
CCCCC1C(c2ccc(F)cc2)=NN(c2ccccc2)C1(C)C(=O)NCCF (centres unmarked)    0.5 to 1 µM

Please find the next compound below.
Under MelJuSo cells: report IC50 of CCCCC1C(c2ccc(F)cc2)=NN(c2ccccc2)C1(C)C(=O)NCC1CCCCC1 (centres unmarked) . > 2 µM
